Target: BuChE from equine serum (eqBuChE) (Equus caballus, UniProt P81908)
Construct: BuChE from equine serum (C4290-1KU; Sigma); purchased Sigma C4290-1KU; host or cells: equine serum
Sequence (P81908 whole entry): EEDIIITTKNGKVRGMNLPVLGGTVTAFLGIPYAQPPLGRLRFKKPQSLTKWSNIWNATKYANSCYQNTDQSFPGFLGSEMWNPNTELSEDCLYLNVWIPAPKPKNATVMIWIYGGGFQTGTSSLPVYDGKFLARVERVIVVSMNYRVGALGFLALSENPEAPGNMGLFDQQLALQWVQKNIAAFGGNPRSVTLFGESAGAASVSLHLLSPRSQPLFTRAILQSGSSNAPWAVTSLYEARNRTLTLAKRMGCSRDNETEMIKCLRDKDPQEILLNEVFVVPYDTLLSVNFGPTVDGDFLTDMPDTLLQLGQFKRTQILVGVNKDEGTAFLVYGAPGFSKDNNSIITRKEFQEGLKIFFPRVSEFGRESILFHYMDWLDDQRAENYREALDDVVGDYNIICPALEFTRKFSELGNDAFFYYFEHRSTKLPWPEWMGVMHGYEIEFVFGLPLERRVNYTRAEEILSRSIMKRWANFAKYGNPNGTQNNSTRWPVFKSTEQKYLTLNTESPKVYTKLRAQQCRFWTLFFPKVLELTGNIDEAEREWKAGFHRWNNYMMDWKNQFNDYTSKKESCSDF
Experiment: BuChE activity assay (modified Ellman's method)
Type: biochemical, equine (horse)
Settings: BuChE from horse serum; 20 µM compound; read-out: inhibition % at 20 µM BuChE
experimentalEndpoint: inhibition at 20 µM (%)
Only the number, expressed in %, is required.

compound: COc1cccc2c1OC(=S)N1N=C(C)CC21 (stereo not shown)
unitSymbol: %
inhibition at 20 µM: 2

Then there is this compound:
Q: Consider the compound S=C1Oc2ccccc2C2CC(c3ccccc3)=NN12 (stereo not shown) and give its measured inhibition at 20 µM.
Ans: 9

The measurements presented in this section are drawn from paper PMC6179045.
